Molecular target: Potassium/sodium hyperpolarization-activated cyclic nucleotide-gated channel 4 (Homo sapiens)
Sequence (whole entry): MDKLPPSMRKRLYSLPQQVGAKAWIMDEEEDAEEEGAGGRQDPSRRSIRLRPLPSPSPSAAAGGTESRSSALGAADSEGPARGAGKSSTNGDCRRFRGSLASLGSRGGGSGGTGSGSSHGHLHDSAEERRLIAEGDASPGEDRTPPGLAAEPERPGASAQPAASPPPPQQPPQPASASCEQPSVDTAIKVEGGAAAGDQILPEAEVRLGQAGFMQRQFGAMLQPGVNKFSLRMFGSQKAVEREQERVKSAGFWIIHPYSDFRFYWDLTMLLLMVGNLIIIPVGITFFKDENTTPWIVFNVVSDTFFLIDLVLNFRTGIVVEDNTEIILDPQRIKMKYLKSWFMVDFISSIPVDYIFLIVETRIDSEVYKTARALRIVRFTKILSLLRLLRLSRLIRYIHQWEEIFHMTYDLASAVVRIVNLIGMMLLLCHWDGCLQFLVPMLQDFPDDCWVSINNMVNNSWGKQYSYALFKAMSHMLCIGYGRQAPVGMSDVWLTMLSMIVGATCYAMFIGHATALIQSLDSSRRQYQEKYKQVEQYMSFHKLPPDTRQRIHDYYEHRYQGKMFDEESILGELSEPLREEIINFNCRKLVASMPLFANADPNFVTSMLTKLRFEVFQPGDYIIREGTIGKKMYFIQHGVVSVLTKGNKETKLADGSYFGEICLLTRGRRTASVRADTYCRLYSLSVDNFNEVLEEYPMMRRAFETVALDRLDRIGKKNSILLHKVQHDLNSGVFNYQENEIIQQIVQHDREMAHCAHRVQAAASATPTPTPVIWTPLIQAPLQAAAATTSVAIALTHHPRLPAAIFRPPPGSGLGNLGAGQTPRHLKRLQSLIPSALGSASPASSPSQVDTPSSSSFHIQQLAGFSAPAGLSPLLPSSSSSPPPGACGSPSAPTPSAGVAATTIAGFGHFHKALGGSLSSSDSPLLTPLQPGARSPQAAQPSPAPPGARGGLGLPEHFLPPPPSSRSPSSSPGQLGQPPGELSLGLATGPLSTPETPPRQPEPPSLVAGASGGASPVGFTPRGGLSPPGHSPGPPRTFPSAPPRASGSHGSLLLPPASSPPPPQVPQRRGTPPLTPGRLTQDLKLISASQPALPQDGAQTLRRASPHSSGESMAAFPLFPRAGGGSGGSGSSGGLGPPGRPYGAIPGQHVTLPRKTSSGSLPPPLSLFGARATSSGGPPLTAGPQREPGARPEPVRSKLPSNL
Assay: Inhibition of human HCN4 expressed in HEK293 cells assessed as reduction in hyperpolarization activated current at 5 uM at holding potential of -80 mV by patch clamp assay relative to control
Type: cell-based
Parameter class (string): assigned from measured inhibition. Ranges: range A (below 30%), range B (30% to below 50%), range C (50% or more)

Check out these entries, answers already filled in.
> print(dat)
                                   molecule      cat
1  COc1ccc(CCN(C)[C@@H]2CCC[C@H](N3CCc4cc(OC)c(OC)cc4CC3=O)C2)cc1OC (racemic)  range C
2  COc1ccc(CCN(C)C2CCCC(N3CCc4cc(OC)c(OC)cc4CC3=O)C2)cc1OC (single isomer, unassigned; (+))  range B
3  COc1ccc(CCCN(C)[C@@H]2CCC[C@H](N3CCc4cc(OC)c(OC)cc4CC3=O)C2)cc1OC (relative stereo)  range B
4  COc1ccc(CN(C)[C@@H]2CCC[C@H](N3CCc4cc(OC)c(OC)cc4CC3=O)C2)cc1OC (relative stereo)  range A
5  COc1ccc(/C=C/CN(C)[C@@H]2CCC[C@H](N3CCc4cc(OC)c(OC)cc4CC3=O)C2)cc1OC (relative stereo)  range C

Kindly state the category for this molecule: COc1ccc(CN(Cc2ccc(OC)c(OC)c2)[C@@H]2CCC[C@H](N3CCc4cc(OC)c(OC)cc4CC3=O)C2)cc1OC
range A

// same read-out, input: COc1ccc(CCN(C)C2CCCC(N3CCc4cc(OC)c(OC)cc4CC3=O)C2)cc1OC (single isomer, unassigned; (-))
range B

# iterate: COc1ccc(OCCN(C)[C@@H]2CCC[C@H](N3CCc4cc(OC)c(OC)cc4CC3=O)C2)cc1OC
range B

* * *

biological target: Potassium/sodium hyperpolarization-activated cyclic nucleotide-gated channel 4 (Mus musculus, UniProt O70507); experiment: Inhibition of HCN4 in C57BL/6J mouse thalamocortical relay neuron assessed as reduction in hyperpolarization current at holding potential of -120 mV by whole-cell patch clamp assay
Sequence (O70507 whole entry): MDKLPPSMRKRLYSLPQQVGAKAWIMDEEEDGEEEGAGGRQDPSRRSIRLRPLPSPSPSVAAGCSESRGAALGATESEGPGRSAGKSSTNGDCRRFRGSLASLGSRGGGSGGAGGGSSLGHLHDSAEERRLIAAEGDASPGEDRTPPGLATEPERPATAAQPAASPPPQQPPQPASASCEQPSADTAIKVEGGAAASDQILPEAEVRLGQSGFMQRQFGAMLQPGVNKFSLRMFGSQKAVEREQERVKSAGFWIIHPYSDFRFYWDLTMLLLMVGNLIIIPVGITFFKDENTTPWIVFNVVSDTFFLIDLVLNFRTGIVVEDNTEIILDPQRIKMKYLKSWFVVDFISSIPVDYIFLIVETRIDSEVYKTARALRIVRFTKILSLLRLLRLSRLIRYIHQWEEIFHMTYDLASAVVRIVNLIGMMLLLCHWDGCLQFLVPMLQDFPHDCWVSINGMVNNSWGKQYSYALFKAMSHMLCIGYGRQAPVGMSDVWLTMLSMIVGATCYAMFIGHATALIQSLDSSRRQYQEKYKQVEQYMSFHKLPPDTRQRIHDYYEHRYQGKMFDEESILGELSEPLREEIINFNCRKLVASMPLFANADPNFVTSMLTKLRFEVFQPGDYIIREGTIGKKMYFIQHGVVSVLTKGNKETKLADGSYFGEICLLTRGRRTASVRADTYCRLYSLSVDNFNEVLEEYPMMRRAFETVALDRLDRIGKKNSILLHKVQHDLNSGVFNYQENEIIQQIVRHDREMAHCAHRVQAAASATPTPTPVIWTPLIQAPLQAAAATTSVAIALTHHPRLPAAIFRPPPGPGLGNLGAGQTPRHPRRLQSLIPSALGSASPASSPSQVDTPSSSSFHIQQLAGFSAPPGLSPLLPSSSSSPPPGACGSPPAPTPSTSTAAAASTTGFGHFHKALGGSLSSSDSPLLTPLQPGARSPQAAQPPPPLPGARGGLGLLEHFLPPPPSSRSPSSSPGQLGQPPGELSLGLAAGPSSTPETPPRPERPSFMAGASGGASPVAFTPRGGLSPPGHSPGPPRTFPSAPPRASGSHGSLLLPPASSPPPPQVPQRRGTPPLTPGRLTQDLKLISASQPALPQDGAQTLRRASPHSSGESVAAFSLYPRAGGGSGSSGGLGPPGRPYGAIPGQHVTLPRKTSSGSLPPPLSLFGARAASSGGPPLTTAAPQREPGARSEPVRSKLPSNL
parameterMeasured: EC50 (µM)
Your answer is read as µM, so omit the unit and give the number.

Data request, read-out EC50, for COc1ccc(CCN(C)[C@@H]2CCC[C@H](N3CCc4cc(OC)c(OC)cc4CC3=O)C2)cc1OC (racemic)
11

* * *

molecular target: Potassium/sodium hyperpolarization-activated cyclic nucleotide-gated channel 4 (Homo sapiens, UniProt Q9Y3Q4); experiment: Inhibition of human HCN4 expressed in HEK293 cells assessed as reduction in hyperpolarization activated current at holding potential of -80 mV by patch clamp assay
parameterMeasured: EC50 (µM)
# unit: µM | format: bare number

Find the recorded EC50 belonging to COc1ccc(CCN(C)[C@@H]2CCC[C@H](N3CCc4cc(OC)c(OC)cc4CC3=O)C2)cc1OC (racemic) and report it.
3.98
